B1: GOLPH3 (parent)
chain: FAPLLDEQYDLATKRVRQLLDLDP

Variants of: B1
Assay: protein stability index of a GFP-peptide fusion (GPS, HEK-293T) (PSI 1-6); higher = more stable;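 note: lentivirally expressed fusions sorted by FACS into six bins by GFP to DsRed ratio, PSI derived from sequencing read proportions per bin multiplied by bin number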
Details: c terminus: a fixed tail appended
Short version: protein stability index at least 2 is condition met, less is condition not met.

Solved cases (8 shown):
Sequence Change | Cat
L4M | condition not met
F1S | condition met
Y9D | condition met
R17K | condition not met
L5W | condition met
Q18T | condition met
R15V | condition met
Q18W | condition met

Reported protein stability index at or above 2? L4Q
condition met

Reported protein stability index at or above 2? T13G
condition met

Reported protein stability index at or above 2? D23S
condition not met

Reported protein stability index at or above 2? V16C
condition met

Reported protein stability index at or above 2? L19A
condition met

Reported protein stability index at or above 2? R15C
condition met

Reported protein stability index at or above 2? L22K
condition met

Reported protein stability index at or above 2? D21W
condition met

Reported protein stability index at or above 2? V16E
condition met

Reported protein stability index at or above 2? A2H
condition met

Reported protein stability index at or above 2? L22H
condition met

Reported protein stability index at or above 2? E7Y
condition not met

Source of measurements: the supplement of paper PMC10567573
